Source of measurements: paper PMC9644403

# Method: Non-specific binding in S9 fractions of mouse liver, kidney and pancreas homogenates, rapid equilibrium dialysis
# Type: in vitro ADME
# Test Settings: S9 subcellular fraction of liver homogenate, pH 7.4; mouse liver S9, 50 μM, 4 h, 37 °C, mean ± SD (n = 3); read-out: fu, liver (%)
Recorded Metric: fraction unbound at 4 h, 50 μM
Lab note: jot down the number only; don't add units.

Solved cases below.
Compound	Obs Value
COc1cc(/C=C/C(=O)Nc2cccc(C[C@H](N)C(=O)O)c2)ccc1O	0.236
COc1cc(C=CC(=O)O)ccc1O [ferulic acid, 4-hydroxy-3-methoxycinnamic acid]	0.849

Attention now shifts to the item below.
Task: What value of measured fraction unbound at 4 h, 50 μM is listed for COc1cc(C=CC(=O)NCc2cccc(CC(N)C(=O)O)c2)ccc1O (stereo not drawn) ?
Output: 0.425

* * *

The entries below come with measured Kp,uu (unbound tissue-to-plasma AUC ratio) values attached.
# Method: In vivo pharmacokinetics in mouse pancreas, liver and kidney after i.p. bolus
# Test Settings: mouse, liver, ip, 25 umol/kg; mice, 25 μmol/kg i.p.; read-out: AUCu, liver/AUCu plasma

Task: Quick check: Kp,uu (unbound tissue-to-plasma AUC ratio) of COc1cc(C=CC(=O)NCc2cccc(CC(N)C(=O)O)c2)ccc1O (stereo not drawn) [derivative 1] ?
Output: 2.9

Task: Please look up its Kp,uu (unbound tissue-to-plasma AUC ratio): COc1cc(/C=C/C(=O)Nc2cccc(C[C@H](N)C(=O)O)c2)ccc1O [derivative 2]
Output: 12.4

Task: Report Kp,uu (unbound tissue-to-plasma AUC ratio) for COc1cc(C=CC(=O)O)ccc1O [ferulic acid, 4-hydroxy-3-methoxycinnamic acid] please.
Output: 5.5

* * *

# Method: In vivo pharmacokinetics in mouse pancreas, liver and kidney after i.p. bolus
# Test Settings: mouse, pancreas, ip, 25 umol/kg, tissue/plasma partition coefficient (eq 2); mice, 25 μmol/kg i.p.; read-out: Kp, pancreas
Entries and their Kp
Could you keep your reply to the number by itself?

Use the examples below as a reference point.
Molecule	Kp
COc1cc(C=CC(=O)O)ccc1O [ferulic acid, 4-hydroxy-3-methoxycinnamic acid]	0.07
COc1cc(/C=C/C(=O)Nc2cccc(C[C@H](N)C(=O)O)c2)ccc1O	17.6

Note: attention shifts to another entry.
Task: Requested read-out: Kp. Entry: COc1cc(C=CC(=O)NCc2cccc(CC(N)C(=O)O)c2)ccc1O (stereo not drawn)
Output: 4.97

* * *

# Method: RBC lysis assay (hemolysis)
# Type: cell-based
# Test Settings: 2% erythrocyte (RBC) suspension, human RBCs, 37 °C, Triton X = 100%, control 2.08 ± 0.15%, read-out: hemolysis rate
// values below are reported hemolysis at 1 h, 100 µM
Output should be the measured figure followed by the unit it is expressed in.

Compound	hemolysis at 1 h, 100 µM
COc1cc(C=CC(=O)O)ccc1O [ferulic acid, 4-hydroxy-3-methoxycinnamic acid]	2.38%
COc1cc(C=CC(=O)NCc2cccc(CC(N)C(=O)O)c2)ccc1O (stereo not drawn)	3.58%

Now examine the next entry.
Task: Which hemolysis at 1 h, 100 µM is reported for this compound? COc1cc(/C=C/C(=O)Nc2cccc(C[C@H](N)C(=O)O)c2)ccc1O
Output: 1.97%

* * *

# Method: HUVEC viability, WST-1 assay
# Type: cell-based, human
# Test Settings: human, HUVEC cells; WST-1, 24 h, % of control, mean ± SD (n = 6–8)
# Procedure: As a third in vitro toxicity study in the human blood circulation system, the effects of FA, D1, and D2 on the viability of human umbilical vein endothelial cells (HUVECs; RRID CVCL_2959; Lonza, Italy; Cat. no. CC-2517) were determined using the WST-1 assay (Takara, Takara Bio Europe, Europe, Saint-Germain-en-Laye, France), according to the previously published protocol.[32] […]
Recorded Metric: viability at 24 h, 100 µM

Compound	viability at 24 h, 100 µM
COc1cc(/C=C/C(=O)Nc2cccc(C[C@H](N)C(=O)O)c2)ccc1O [derivative 2]	60.3%
COc1cc(C=CC(=O)O)ccc1O [ferulic acid, 4-hydroxy-3-methoxycinnamic acid]	62.6%

Task: Could you share which viability at 24 h, 100 µM value was measured for COc1cc(C=CC(=O)NCc2cccc(CC(N)C(=O)O)c2)ccc1O (stereo not drawn) [derivative 1] ?
Output: 80.7%

* * *

# Method: In vivo pharmacokinetics in mouse pancreas, liver and kidney after i.p. bolus
# Test Settings: mouse, kidney, ip, 25 umol/kg; mice, 25 μmol/kg i.p.; read-out: AUCu, kidney/AUCu plasma
# Experimental: The pharmacokinetic study of FA, D1, and D2 was performed as previously described,[17] in which the pharmacokinetic parameters for the plasma and brain have been reported. […] The kidney, liver, and pancreas were rapidly collected, snap-frozen on dry ice, and stored at −80 °C until analyzed. […] Drug concentrations were analyzed using the LC–MS/MS method described previously,[17] with minor changes. […] The time–concentration profiles for studied drugs were calculated using GraphPad Prism v. […]
Recorded Metric: Kp,uu (unbound tissue-to-plasma AUC ratio)
// response body must contain only the number

Compound	Obs Value
COc1cc(/C=C/C(=O)Nc2cccc(C[C@H](N)C(=O)O)c2)ccc1O	25.7
COc1cc(C=CC(=O)NCc2cccc(CC(N)C(=O)O)c2)ccc1O (stereo not drawn)	0.74

# context switch: different compound, same Kp,uu (unbound tissue-to-plasma AUC ratio)
Task: State the recorded Kp,uu (unbound tissue-to-plasma AUC ratio) for this entry: COc1cc(C=CC(=O)O)ccc1O [ferulic acid, 4-hydroxy-3-methoxycinnamic acid]
Output: 2.21

* * *

Parameter: half-life. Scope: all listed entries.
# Method: In vivo pharmacokinetics in mouse pancreas, liver and kidney after i.p. bolus
# Test Settings: mouse, kidney, ip, 25 umol/kg; elimination half-life; mice, 25 μmol/kg i.p.; read-out: t1/2β, kidney
The reply should contain only the number, in min.

Some compounds with recorded half-life:
Compound	Recorded Metric	Endpoint Unit	Obs Value
COc1cc(/C=C/C(=O)Nc2cccc(C[C@H](N)C(=O)O)c2)ccc1O	half-life	min	8
COc1cc(C=CC(=O)O)ccc1O [ferulic acid, 4-hydroxy-3-methoxycinnamic acid]	half-life	min	3.4

Now let's try a different one.
Task: // lookup half-life for COc1cc(C=CC(=O)NCc2cccc(CC(N)C(=O)O)c2)ccc1O (stereo not drawn)
Output: 11.8

* * *

# Method: In vivo pharmacokinetics in mouse pancreas, liver and kidney after i.p. bolus
# Test Settings: mouse, kidney, ip, 25 umol/kg, tissue/plasma partition coefficient (eq 2); mice, 25 μmol/kg i.p.; read-out: Kp, kidney
Recorded Kp values for a group of compounds are listed next.
// keep it numeric: no unit symbol after the value

Compound	Kp
COc1cc(/C=C/C(=O)Nc2cccc(C[C@H](N)C(=O)O)c2)ccc1O	7.27
COc1cc(C=CC(=O)O)ccc1O [ferulic acid, 4-hydroxy-3-methoxycinnamic acid]	0.24

Moving on to another compound below.
Task: # lookup: Kp of COc1cc(C=CC(=O)NCc2cccc(CC(N)C(=O)O)c2)ccc1O (stereo not drawn)
Output: 0.4

* * *

# Method: In vivo pharmacokinetics in mouse pancreas, liver and kidney after i.p. bolus
# Test Settings: mouse, pancreas, ip, 25 umol/kg; mice, 25 μmol/kg i.p.; read-out: AUCu, pancreas/AUCu plasma
Recorded Metric: Kp,uu (unbound tissue-to-plasma AUC ratio)

Example entries and their recorded answers appear below.
Molecule	Obs Value
COc1cc(C=CC(=O)NCc2cccc(CC(N)C(=O)O)c2)ccc1O (stereo not drawn) [derivative 1]	5.54
COc1cc(/C=C/C(=O)Nc2cccc(C[C@H](N)C(=O)O)c2)ccc1O [derivative 2]	30.6

Task: Would you mind telling me what Kp,uu (unbound tissue-to-plasma AUC ratio) value was observed for COc1cc(C=CC(=O)O)ccc1O [ferulic acid, 4-hydroxy-3-methoxycinnamic acid] ?
Output: 0.64

* * *

Measured viability at 24 h, 50 µM, listed per entry.
# Method: HUVEC viability, WST-1 assay
# Type: cell-based, human
# Test Settings: human, HUVEC cells; WST-1, 24 h, % of control, mean ± SD (n = 6–8)
Write down the numeric answer in % and omit the unit.

Compound	Endpoint Unit	Obs Value
COc1cc(C=CC(=O)NCc2cccc(CC(N)C(=O)O)c2)ccc1O (centres unmarked)	%	89

Task: Recorded viability at 24 h, 50 µM of COc1cc(/C=C/C(=O)Nc2cccc(C[C@H](N)C(=O)O)c2)ccc1O , please.
Output: 73.5

* * *

# Method: Non-specific binding in S9 fractions of mouse liver, kidney and pancreas homogenates, rapid equilibrium dialysis
# Assay type: in vitro ADME
# Test Settings: S9 subcellular fraction of pancreas homogenate, pH 7.4; mouse pancreas S9, 50 μM, 4 h, 37 °C, mean ± SD (n = 3); read-out: fu, pancreas (%)
Recorded Metric: fraction unbound at 4 h, 50 μM
Keep the answer to the number alone.

// worked examples, fraction unbound at 4 h, 50 μM included
Molecule	Obs Value
COc1cc(C=CC(=O)NCc2cccc(CC(N)C(=O)O)c2)ccc1O (stereo not drawn)	0.28
COc1cc(C=CC(=O)O)ccc1O [ferulic acid, 4-hydroxy-3-methoxycinnamic acid]	0.993

Task: Request the reported fraction unbound at 4 h, 50 μM associated with COc1cc(/C=C/C(=O)Nc2cccc(C[C@H](N)C(=O)O)c2)ccc1O
Output: 0.15
